target: T1, human ILT8 (LILRA6) on CHO cells (human, UniProt Q6PI73 24-477); assay: flow cytometry, CHO transfectants
T1 construct: also called CHO ILT8 cell line
T1 sequence (Q6PI73 other isoform, or with tags, fused parts or gaps): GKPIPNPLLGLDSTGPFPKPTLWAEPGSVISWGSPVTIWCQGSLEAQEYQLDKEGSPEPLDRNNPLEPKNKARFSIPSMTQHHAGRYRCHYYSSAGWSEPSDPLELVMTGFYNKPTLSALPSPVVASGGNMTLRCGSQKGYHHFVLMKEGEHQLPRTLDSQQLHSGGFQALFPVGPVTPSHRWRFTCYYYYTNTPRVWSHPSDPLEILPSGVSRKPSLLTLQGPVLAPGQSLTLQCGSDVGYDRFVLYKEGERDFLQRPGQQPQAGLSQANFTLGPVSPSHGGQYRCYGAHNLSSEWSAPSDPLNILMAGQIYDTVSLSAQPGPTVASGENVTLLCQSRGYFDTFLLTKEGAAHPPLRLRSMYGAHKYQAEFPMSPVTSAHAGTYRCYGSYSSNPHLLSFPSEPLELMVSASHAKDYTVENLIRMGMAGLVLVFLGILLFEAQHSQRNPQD
readout.type: binding result

27H5 (antibody, human IgG1, V domains shown) VH: QVQLKESGPGLVAPSQSLSITCTVSGFSLTSYGVSWVRQPPGKGLEWLGVIWGDGNTNYHSALISRLSISKDNSKSQVFLKLNSLQTDDTATYYCARTNWDGWFAYWGQGTLVTVSA VL: DIVMTQSHKFMSTSVGDRVSITCKASQDVGTAVAWYQQKPGQSPKLLIYWASTRHTGVPDRFTGSGSGTDFTLTISNVQSEDLADYFCQQYRSYPLGTFGGGTKLEIK; no binding
12D12 (antibody, human IgG1, V domains shown) VH: QVQLQQPGAELVKPGASVRMSCKASGYTFTSYWVHWVKQRPGQGLEWIGVIDPSDSYTSYNQNFKGKATLTVDTSSKTAYIHLSSLTSEDSAVYFCARGERYDGDYFAMDYWGQGTSVTVSS VL: DIVMTQSPASLSVSVGETVTITCRASENIYSNLAWYQQKQGKSPQLLVYAATNLADGVPSRFSGSRSGTQYSLKINSLQSEDFGTYYCQHFWNTPRTFGGGTKLEIK; no binding
3H5 (antibody, human IgG1, V domains shown) VH: QVQLKESGPGLVAPSQSLSITCTVSGFSLTSYGVSWVRQPPGKGLEWLGVIWGDGSTNYHSALISRLSISKDNSKSQVFLKLNSLQTDDTATYYCAKPRWDDYAMDYWGQGTSVTVSS VL: DIQMTQTTSSLSASLGDRVTISCRASQDISNYLNWYQQKPDGTVKLLIYYTSRLHSGVPSRFSGSGSGTDYSLTISNLEQEDIATYFCQQGNTLWTFGGGTKLEIK; no binding
